protocol-details: logP by HPLC on reversed-phase columns (C18), EEC Directive 79/831 Annex V.A8
Assay type: physicochemical
applied-conditions: pH 2.7, log P
Short version: chromatographic logP at least 3 is Criterion met, less is Criterion not met.

Worked set:
CNC(=O)c1cc(C#N)cc(C)c1NC(=O)c1cc(CN2CC(C(F)(F)F)C(c3ccc(Cl)cc3)=N2)nn1-c1ncccc1Cl (stereo not shown) ... Criterion met
CNC(=O)c1cc(C#N)cc(C)c1NC(=O)c1cc(C(=O)c2nc(C(F)(F)F)cs2)nn1-c1ncccc1Cl ... Criterion not met
Cc1cc(Cl)cc(C(=O)NC(C)C)c1NC(=O)c1cc(CNS(=O)(=O)c2ccccc2)nn1-c1ncccc1Cl ... Criterion not met

Shift focus to the following entry.
INPUT: Check if chromatographic logP >= 3 (inclusive). Item: CNC(=O)c1cc(Br)cc(C)c1NC(=O)c1cc(C(=O)Nc2ccc(C(F)(F)F)cc2)nn1-c1ncccc1Cl
OUTPUT: Criterion met
